- procedure.text: Cytotoxicity against human BGC823 cells after 96 hrs by MTT assay
- Assay type: functional, cell-based
- applied.conditions: BGC-823, 96 h
readout.name: IC50

Use the examples below as a reference point.
compound: COC(=O)C[C@H]1OC(C)(C)[C@@H]2CC(=O)[C@]3(C)[C@H]([C@@H](O)C[C@@]4(C)[C@H](c5ccoc5)OC(=O)[C@H]5O[C@]543)[C@@]12C
result: > 10 µM

compound: CC(C)(O)[C@@H]1CC(=O)[C@]2(C)[C@@H]3[C@H](C[C@@]4(C)[C@H](c5ccoc5)OC(=O)[C@H]5O[C@]542)OC(=O)C=C[C@]31C
result: > 10 µM

compound: CC(=O)O[C@H]1CC(=O)OC(C)(C)[C@@H]2CC(=O)[C@]3(C)[C@H]([C@@H](O)C[C@@]4(C)[C@H](C5=CC(O)OC5=O)OC(=O)[C@H]5O[C@]543)[C@@]12C (stereo not given in full)
result: > 10 µM

compound: CC1(C)OC(=O)C=C[C@]2(C)[C@H]3[C@@H](O)C[C@@]4(C)[C@H](C5=CC(O)OC5=O)OC(=O)[C@H]5O[C@]54[C@]3(C)C(=O)C[C@@H]12 (stereo not given in full)
result: > 10 µM

compound: CC(=O)O[C@H]1CC(=O)OC(C)(C)[C@@H]2CC(=O)[C@]3(C)[C@H]([C@@H](O)C[C@@]4(C)[C@H](C5=CC(=O)OC5O)OC(=O)[C@H]5O[C@]543)[C@@]12C (relative stereo)
result: > 10 µM

compound: CC1(C)OC(=O)C=C[C@]2(C)[C@H]3[C@@H](O)C[C@@]4(C)[C@@H](C5=CC(=O)OC5O)OC(=O)[C@H]5O[C@]54[C@]3(C)C(=O)C[C@@H]12 (stereo not given in full)
result: > 10 µM

compound: COC(=O)C[C@@H]1OC(C)(C)[C@@H]2CC(=O)[C@]3(C)[C@H]([C@@H](O)C[C@@]4(C)[C@H](c5ccoc5)OC(=O)[C@H]5O[C@]543)[C@@]12C
result: > 10 µM

compound: COC(=O)C[C@H](OC(C)=O)[C@]1(C)[C@H]2[C@@H](O)C[C@@]3(C)[C@H](c4ccoc4)OC(=O)[C@H]4O[C@]43[C@]2(C)C(=O)C[C@H]1C(C)(C)O
result: > 10 µM

input: Recorded IC50 for CC(=O)O[C@@H](CC(=O)O)[C@]1(C)[C@H]2[C@@H](O)C[C@@]3(C)[C@H](C4=CC(O)OC4=O)OC(=O)[C@H]4O[C@]43[C@]2(C)C(=O)C[C@H]1C(C)(C)O (relative stereo) , please?
output: > 10 µM

input: Same lookup for `CCOC(=O)C[C@H](OC(C)=O)[C@]1(C)[C@H]2[C@@H](O)C[C@@]3(C)[C@H](c4ccoc4)OC(=O)[C@H]4O[C@]43[C@]2(C)C(=O)C[C@H]1C(C)(C)O` , please.
output: > 10 µM
